- system tested: human active recombinant p38α-6His tagged (Homo sapiens)
- test details: P38 Alpha Enzyme Assay (AlphaScreen, biotinylated-ATF2 substrate)
- Format: biochemical
- reported conditions: p38 alpha enzyme inhibition; means of replicate determinations; 4 h pre-incubation at 37° C.; SD of assay 0.2-0.3 log units
measurement name: pIC50

Retrieve pIC50 on human active recombinant p38α-6His tagged (Homo sapiens); query `Cc1c(F)cc(C(=O)NC2CC2)cc1-n1ccnc(NC(C)(C)c2ccccc2OCCNC[C@H](C)O)c1=O`
10.4

Retrieve pIC50 on human active recombinant p38α-6His tagged (Homo sapiens); query `CONC(=O)c1ccc(C)c(-n2ccnc(N[C@@H](c3cccc4ccccc34)[C@@H](C)CN3CCOCC3)c2=O)c1`
9.2

Retrieve pIC50 on human active recombinant p38α-6His tagged (Homo sapiens); query `Cc1ccc(C(=O)NC2CC2)cc1-n1cc(C(N)=O)nc(NCc2ccccc2)c1=O`
6.2

Retrieve pIC50 on human active recombinant p38α-6His tagged (Homo sapiens); query `Cc1ccc(C(=O)NC2CC2)cc1-n1ccnc(NCc2cccc3c2OCCO3)c1=O`
7.9

Retrieve pIC50 on human active recombinant p38α-6His tagged (Homo sapiens); query `Cc1c(F)cc(C(=O)NC2CC2)cc1-n1ccnc(NC2(c3ccccc3OCCNC[C@@H](C)O)CC2)c1=O`
9.7

Retrieve pIC50 on human active recombinant p38α-6His tagged (Homo sapiens); query `Cc1ccc(C(=O)NC2CC2)cc1-n1ccnc(NC2(c3ccccc3OCCNC3CCC3)CC2)c1=O`
10

[1] Cc1ccc(C(=O)NC2CC2)cc1-n1ccnc(NCc2cccs2)c1=O
[2] COCCNCCOc1ccccc1C1(Nc2nccn(-c3cc(C(=O)NC4CC4)cc(F)c3C)c2=O)CC1
Lab note: check whether 1 or 2 has the lower measured pIC50. Kindly state the label of the option you pick.
1

---

- system tested: human active recombinant p38α-6His tagged (Homo sapiens)
- test details: P38 Alpha Enzyme Assay (AlphaScreen, biotinylated-ATF2 substrate)
- Format: biochemical
- reported conditions: p38 alpha enzyme inhibition; means of replicate determinations; 4 h pre-incubation at 37° C.; SD of assay 0.2-0.3 log units
measurement name: pIC50

// known answers, use as guide
Give me measured pIC50, please, for this compound: `CNCCOc1ccccc1C1(Nc2nccn(-c3cc(C(=O)NC4CC4)cc(F)c3C)c2=O)CC1`
10

Give me measured pIC50, please, for this compound: `Cc1ccc(C(=O)NC2CC2)cc1-n1ccnc(NCc2ccc(C(C)(C)C)cc2)c1=O`
6.1

[a] Cc1ccc(C(=O)NC2CC2)cc1-n1ccnc(NC2(c3ccccc3OC[C@H](O)CNCCO)CC2)c1=O
[b] COCCCNc1nccn(-c2cc(C(=O)NC3CC3)ccc2C)c1=O
Lab note: check whether a or b has the lower measured pIC50. Kindly state the label of the option you pick.
b

---

- system tested: human active recombinant p38α-6His tagged (Homo sapiens, UniProt Q16539)
- Sequence (Q16539 whole entry): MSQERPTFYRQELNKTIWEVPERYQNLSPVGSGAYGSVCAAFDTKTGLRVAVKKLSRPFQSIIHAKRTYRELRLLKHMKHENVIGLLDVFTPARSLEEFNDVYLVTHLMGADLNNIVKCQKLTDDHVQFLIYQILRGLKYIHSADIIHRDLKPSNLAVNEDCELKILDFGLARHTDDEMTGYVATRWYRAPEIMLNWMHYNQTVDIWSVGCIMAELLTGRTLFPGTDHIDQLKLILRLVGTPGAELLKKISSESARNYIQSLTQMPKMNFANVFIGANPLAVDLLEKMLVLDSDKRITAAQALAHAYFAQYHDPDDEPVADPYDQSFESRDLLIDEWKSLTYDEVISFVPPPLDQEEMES
- test details: P38 Alpha Enzyme Assay (AlphaScreen, biotinylated-ATF2 substrate);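 also: 0.5 nM final p38α, reaction started with ATP and run 45 min at 37 °C, phospho-ATF2 read by antibody-based AlphaScreen, background wells quenched with EDTA before ATP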
- Assay type: biochemical
- reported conditions: p38 alpha enzyme inhibition; means of replicate determinations; 4 h pre-incubation at 37° C.; SD of assay 0.2-0.3 log units
measurement name: pIC50

// known answers, use as guide
Give me measured pIC50, please, for this compound: `Cc1ccc(C(=O)NC2CC2)cc1-n1ccnc(N(C)CCc2ccccc2)c1=O`
6.5

Give me measured pIC50, please, for this compound: `Cc1ccc(C(=O)NC2CC2)cc1-n1ccnc(NC[C@H](C)c2ccccc2)c1=O`
7.1

Give me measured pIC50, please, for this compound: `CCNCCOc1ccccc1C(C)(C)Nc1nccn(-c2cc(C(=O)NC3CC3)ccc2Cl)c1=O`
9.5

Give me measured pIC50, please, for this compound: `Cc1ccc(C(=O)NC2CC2)cc1-n1ccnc(N[C@@H](c2cccc3ccccc23)[C@@H](C)CN2CCOCC2)c1=O`
8.2

Give me measured pIC50, please, for this compound: `Cc1ccc(C(=O)NC2CC2)cc1-n1ccnc(NC2(c3ccccc3OCCNCC(C)(C)CO)CC2)c1=O`
9.7

[A] Cc1ccc(CCNc2nccn(-c3cc(C(=O)NC4CC4)ccc3C)c2=O)cc1
[B] Cc1ccc(C(=O)NC2CC2)cc1-n1ccnc(NC2(c3ccccc3OCCNCCCO)CC2)c1=O
So which one has the bigger pIC50 here, A or B ? Kindly state the label of the option you pick.
B

---

- system tested: human active recombinant p38α-6His tagged (Homo sapiens)
- test details: P38 Alpha Enzyme Assay (AlphaScreen, biotinylated-ATF2 substrate)
- Type: biochemical
- reported conditions: p38 alpha enzyme inhibition; means of replicate determinations; 4 h pre-incubation at 37° C.; SD of assay 0.2-0.3 log units
measurement name: pIC50

[A] Cc1ccc(C(=O)NC2CC2)cc1-n1cc(Br)nc(N2CCN(C)CC2c2ccccc2)c1=O (stereo not shown) [Example 120]
[B] CNC[C@H](O)COc1ccccc1C1(Nc2nccn(-c3cc(C(=O)NC4CC4)ccc3C)c2=O)CC1 [Example 304]
So which one has the bigger pIC50 here, A or B ? Kindly state the label of the option you pick.
B
(B: 10.2, A: 6.4)

---

- system tested: human active recombinant p38α-6His tagged (Homo sapiens)
- test details: P38 Alpha Enzyme Assay (AlphaScreen, biotinylated-ATF2 substrate)
- Assay type: biochemical
- reported conditions: p38 alpha enzyme inhibition; means of replicate determinations; 4 h pre-incubation at 37° C.; SD of assay 0.2-0.3 log units
measurement name: pIC50

Give me measured pIC50, please, for this compound: Cc1c(F)cc(C(=O)NC2CC2)cc1-n1ccnc(NC2(c3cc(F)ccc3OCCNCCO)CC2)c1=O [Example 282]
10.3

Give me measured pIC50, please, for this compound: Cc1ccc(C(=O)NC2CC2)cc1-n1ccnc(NC2(c3ccccc3OCCN(C)C)CC2)c1=O [Example 237]
9.9

[A] Cc1ccc(C(=O)NC2CC2)cc1-n1ccnc(NC2(c3ccccc3OCCNCCO)CCC2)c1=O [Example 270]
[B] Cc1ccc(C(=O)NC2CC2)cc1-n1ccnc(NCc2cnc3ccccc3c2)c1=O [Example 28]
Lab note: check whether A or B has the lower measured pIC50. Kindly state the label of the option you pick.
B
(B: 6.2, A: 9.9)

---

- system tested: human active recombinant p38α-6His tagged (Homo sapiens)
- test details: P38 Alpha Enzyme Assay (AlphaScreen, biotinylated-ATF2 substrate)
- Format: biochemical
- reported conditions: p38 alpha enzyme inhibition; means of replicate determinations; 4 h pre-incubation at 37° C.; SD of assay 0.2-0.3 log units
measurement name: pIC50

// known answers, use as guide
Give me measured pIC50, please, for this compound: Cc1ccc(C(=O)NC2CC2)cc1-n1ccnc(N2CCC(c3ccccc3)C2)c1=O (centres unmarked) [Example 54]
6.5

Give me measured pIC50, please, for this compound: Cc1c(F)cc(C(=O)NC2CC2)cc1-n1ccnc(NC2(c3ccccc3OCCN)CC2)c1=O [Example 314]
10.4

Give me measured pIC50, please, for this compound: Cc1c(F)cc(C(=O)NC2CC2)cc1-n1ccnc(NC(C)(C)c2ccccc2OCCNCCC(=O)O)c1=O [Example 313]
9.9

Give me measured pIC50, please, for this compound: COc1ccccc1[C@H](Nc1nccn(-c2cc(C(=O)NC3CC3)ccc2C)c1=O)[C@@H](C)CO [Example 274]
8.7

[I] Cc1ccc(C(=O)NC2CC2)cc1-n1ccnc(N[C@@H](c2ccccc2)[C@@H](C)CN2CCNC[C@H]2C)c1=O [Example 187]
[II] Cc1ccc(C(=O)NC2CC2)cc1-n1ccnc(NCCCc2ccccc2)c1=O [Example 36]
Lab note: check whether I or II has the lower measured pIC50. Kindly state the label of the option you pick.
II

[A] Cc1ccc(C(=O)NC2CC2)cc1-n1ccnc(NC(C)(C)c2ccccc2OC2CCNC2)c1=O (centres unmarked) [Example 216]
[B] Cc1ccc(C(=O)NC2CC2)cc1-n1ccnc(NCc2cccnc2)c1=O [Example 24]
Lab note: check whether A or B has the lower measured pIC50. Kindly state the label of the option you pick.
B

[I] CNCCOc1ccccc1C1(Nc2nccn(-c3cc(C(=O)NC4CC4)ccc3C)c2=O)CC1 [Example 167]
[II] Cc1ccc(C(=O)NC2CC2)cc1-n1cc(Cl)nc(NCCCN(C)C)c1=O [Example 108]
Lab note: check whether I or II has the lower measured pIC50. Kindly state the label of the option you pick.
II

[1] Cc1ccc(C(=O)NC2CC2)cc1-n1ccnc(NC(C)(C)Cc2ccc(F)cc2)c1=O [Example 62]
[2] Cc1ccc(C(=O)NC2CC2)cc1-n1ccnc(NC2(c3ccccc3OC[C@@H](O)CNCCO)CC2)c1=O [Example 302]
So which one has the bigger pIC50 here, 1 or 2 ? Kindly state the label of the option you pick.
2
(2: 10, 1: 7)

[P] Cc1ccc(C(=O)NC2CC2)cc1-n1ccnc(NC2(c3ccccc3OCCN3CCCN(C)CC3)CC2)c1=O [Example 235]
[Q] Cc1ccc(C(=O)NC2CC2)cc1-n1cc(CN(C)C)nc(NCc2ccccc2)c1=O [Example 105]
Lab note: check whether P or Q has the lower measured pIC50. Kindly state the label of the option you pick.
Q
